- target-under-test: SIK2 (Homo sapiens, UniProt Q9H0K1)
- Sequence (Q9H0K1 whole entry, species assumed): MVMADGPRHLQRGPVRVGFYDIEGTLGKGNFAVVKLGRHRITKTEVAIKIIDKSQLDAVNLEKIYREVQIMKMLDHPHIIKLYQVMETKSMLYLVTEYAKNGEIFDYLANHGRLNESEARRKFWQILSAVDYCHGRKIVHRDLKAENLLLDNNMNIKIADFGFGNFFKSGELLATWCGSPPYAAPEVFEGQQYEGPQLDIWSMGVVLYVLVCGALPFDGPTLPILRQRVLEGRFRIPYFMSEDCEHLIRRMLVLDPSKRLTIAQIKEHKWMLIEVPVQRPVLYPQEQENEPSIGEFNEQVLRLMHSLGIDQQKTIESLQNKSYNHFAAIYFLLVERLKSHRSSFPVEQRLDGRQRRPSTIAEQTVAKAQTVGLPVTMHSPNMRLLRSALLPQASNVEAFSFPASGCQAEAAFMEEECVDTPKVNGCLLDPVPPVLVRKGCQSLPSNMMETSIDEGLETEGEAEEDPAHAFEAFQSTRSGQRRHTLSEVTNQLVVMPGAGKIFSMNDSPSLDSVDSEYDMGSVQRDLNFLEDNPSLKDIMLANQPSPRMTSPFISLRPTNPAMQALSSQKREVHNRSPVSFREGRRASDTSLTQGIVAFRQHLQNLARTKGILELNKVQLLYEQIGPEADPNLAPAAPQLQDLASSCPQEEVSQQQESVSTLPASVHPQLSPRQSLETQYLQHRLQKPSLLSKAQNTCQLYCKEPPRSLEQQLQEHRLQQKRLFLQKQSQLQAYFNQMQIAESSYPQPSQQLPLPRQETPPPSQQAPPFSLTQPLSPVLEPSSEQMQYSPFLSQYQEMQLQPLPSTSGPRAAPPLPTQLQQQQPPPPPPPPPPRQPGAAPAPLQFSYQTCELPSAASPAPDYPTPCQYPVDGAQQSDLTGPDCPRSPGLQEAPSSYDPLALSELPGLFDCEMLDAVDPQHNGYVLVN
- run-description: SIK2 Enzymatic Assay Version 1 (ADP Glo)
- Format: biochemical
- condition-context: enzyme 0.6 nM, 160 μM ATP and 140 μM HDAC5tide (each 2× final concentration); 30 minutes pre-incubation, 4 hours; ADPGlo luminescence; read-out: SIK2 ADP Glo IC50 (μM) (Test Example 1)
metric-name: IC50 (µM)

compound: COc1ncccc1-c1ccn2nc(NC(=O)C3CC3)cc2c1 [Example 748]
units: µM
IC50: 0.0965

compound: N#Cc1cc(-c2ccn3nc(NC(=O)C4CC4)cc3c2)c(O[C@H]2CCN(C3CC3)C2)cn1 [Example 7]
units: µM
IC50: 0.000725

compound: C[C@@H](Oc1ccc(C#N)cc1-c1ccn2nc(NC(=O)C3CC3)cc2c1)[C@@H]1CNCCO1 (single isomer, unassigned) [Example 477]
units: µM
IC50: 0.00442

compound: Cc1cc(-c2ccn3nc(NC(=O)C4CC4)cc3c2)c(O[C@H]2C[C@H]3CC[C@@H](C2)N3C)cn1 [Example 138]
units: µM
IC50: 0.000854

I: CN1CC[C@@H](COc2cnc(Cl)cc2-c2ccn3nc(NC(=O)C4CC4)cc3c2)C1 [Example 490]
II: CC(C)(C)OC(=O)COc1cnc(C#N)cc1-c1ccn2nc(NC(=O)C3CC3)cc2c1 [Example 55]
# input Please indicate which has the smaller reported IC50: I , or II . Field: selected label. Fill in the label of the entry you choose.
# output I

a: CN1CC[C@@H](COc2cnccc2-c2ccn3nc(NC(=O)C4CC4)cc3c2)C1 [Example 489]
b: CN1CCC(Oc2cnc(C#N)cc2-c2ccn3nc(NC(=O)C4CC4)cc3c2)C1 (single isomer, unassigned) [Example 58]
c: CC(C)(C)OC(=O)N1CCC(COc2cnc(C#N)cc2-c2ccn3nc(NC(=O)C4CC4)cc3c2)C1 (stereo in doubt) [Example 35]
# input Rank entries according to their IC50, from the largest number down. Thanks in advance for listing the labels in the requested order.
# output c, b, a

a: N#Cc1cc(-c2ccn3nc(NC(=O)C4CC4)cc3c2)c(O[C@@H]2CCN(CC(F)(F)F)C2)cn1 [Example 110]
b: C[C@@H](O)COc1cnc(C#N)cc1-c1ccn2nc(NC(=O)C3CC3)cc2c1 [Example 94]
c: N#Cc1cc(-c2ccn3nc(NC(=O)C4CC4)cc3c2)c(OCC2CNC2)cn1 [Example 23]
d: CC#Cc1cc(-c2ccn3nc(NC(=O)C4CC4)cc3c2)c(OC2CN(C)C2)cn1 [Example 442]
# input Provide the items ranked by increasing IC50. Thanks in advance for listing the labels in the requested order.
# output d, a, c, b
(d: 0.000323 µM, a: 0.00055 µM, c: 0.0021 µM, b: 0.00847 µM)

1: CN1C[C@@H](Oc2cnc(C#N)cc2-c2ccn3nc(NC(=O)C4CC4)cc3c2)C[C@@H](C(F)(F)F)C1 [Example 28]
2: N#Cc1cc(-c2ccn3nc(NC(=O)C4CC4)cc3c2)c(O[C@@H]2C[C@@H]3C[C@H]2CN3)cn1 (single isomer, unassigned) [Example 17]
3: Cc1cc(-c2ccn3nc(NC(=O)C4CC4)cc3c2)c(O[C@@H]2CC[C@H](N)C2)cn1 [Example 152]
4: N#Cc1cc(-c2ccn3nc(NC(=O)C4CC4)cc3c2)c(O[C@H]2C[C@H]3C[C@@H]2CN3)cn1 (single isomer, unassigned) [Example 18]
5: N#Cc1cc(-c2ccn3nc(NC(=O)C4CC4)cc3c2)c(OCc2cccnc2)cn1 [Example 47]
# input Rank entries according to their IC50, from the largest number down. Thanks in advance for listing the labels in the requested order.
# output 5, 1, 3, 4, 2
(5: 0.0135 µM, 1: 0.00922 µM, 3: 0.00378 µM, 4: 0.00158 µM, 2: 0.000402 µM)

###

- target-under-test: SIK2 (Homo sapiens)
- run-description: SIK2 Enzymatic Assay Version 1 (ADP Glo)
- Format: biochemical
- condition-context: enzyme 0.6 nM, 160 μM ATP and 140 μM HDAC5tide (each 2× final concentration); 30 minutes pre-incubation, 4 hours; ADPGlo luminescence; read-out: SIK2 ADP Glo IC50 (μM) (Test Example 1)
metric-name: IC50 (µM)

Illustrative cases are given below, each with its answer.
compound: CCOc1ccccc1-c1ccn2nc(NC(=O)C3CC3)cc2c1
IC50 / µM: 0.0217

compound: CCOc1cnc(C#N)cc1-c1ccn2nc(NC(=O)C3CC3)cc2c1
IC50 / µM: 0.00412

compound: N#Cc1cc(-c2ccn3nc(NC(=O)C4CC4)cc3c2)c(OC[C@H]2C[C@@H](Nc3ccccn3)C2)cn1
IC50 / µM: 0.00196

compound: Cc1cc(-c2ccn3nc(NC(=O)C4CC4)cc3c2)c(O[C@@H]2C[C@H]3CC[C@@H](C2)N3C)cn1
IC50 / µM: 0.0195

compound: CNC(=O)C1CN(c2cnc(C#N)cc2-c2ccn3nc(NC(=O)C4CC4)cc3c2)C1
IC50 / µM: 0.0846

a: Cc1cc(-c2ccn3nc(NC(=O)C4CC4)cc3c2)c(OCC2(N)COC2)cn1
b: N#Cc1cc(-c2ccn3nc(NC(=O)C4CC4)cc3c2)c(NC2CCCC2)cn1
c: N#Cc1cc(-c2ccn3nc(NC(=O)C4CC4)cc3c2)c(OC[C@H]2C[C@H](N)C2)cn1
d: Cc1cc(-c2ccn3nc(NC(=O)C4CC4)cc3c2)c(O[C@@H]2CC[C@H](O)C2)cn1 (single isomer, unassigned)
e: CN1CC[C@H](CNc2cnc(C#N)cc2-c2ccn3nc(NC(=O)C4CC4)cc3c2)C1
# input Provide the items ranked by increasing IC50. Thanks in advance for listing the labels in the requested order.
# output c, a, d, b, e
(c: 0.000647 µM, a: 0.00212 µM, d: 0.00358 µM, b: 0.0143 µM, e: 0.0577 µM)

###

- target-under-test: UniProt Q9H0K1
- run-description: SIK2 Enzymatic Assay High Version 2 (High ATP)
- Type: biochemical
- condition-context: enzyme 6 nM, 6 mM ATP and 400 μM HDAC5tide (each 2× final concentration); 30 minutes pre-incubation, 2 hours; ADP-Glo Max luminescence; read-out: SIK2 high ATP IC50 (μM) (Test Example 2)
metric-name: IC50 (µM)

I: Cc1cc(Nc2cc3cc(-c4cc(OC(F)F)ncc4OCC(C)(C)C(=O)N(C)C)ccn3n2)nc(C)n1 [Example 735]
II: COCc1nc(C)cc(Nc2cc3cc(-c4cc(C)ncc4OCC(C)(C)O)ccn3n2)n1
# input Sort I and II by IC50 descending and give the first. Field: selected label. Fill in the label of the entry you choose.
# output II
(II: 0.0181 µM, I: 0.00911 µM)

I: Cc1cc(-c2ccn3nc(Nc4cccnn4)cc3c2)c(OC[C@H]2CNCC(C)(C)O2)cn1 (single isomer, unassigned)
II: Cc1ncc(Nc2cc3cc(-c4cc(OC(F)F)ncc4OCC(C)(C)C#N)ccn3n2)cn1
# input Sort I and II by IC50 descending and give the first. Field: selected label. Fill in the label of the entry you choose.
# output II

a: Cc1cc(-c2ccn3nc(Nc4cc(C)nc(C)n4)cc3c2)c(OC[C@]2(C)CCCO2)cn1 (single isomer, unassigned)
b: Cc1cc(-c2ccn3nc(Nc4cnc5cc[nH]c5n4)cc3c2)c(O[C@H]2CC[C@H](O)CC2)cn1
c: Cc1cc(-c2ccn3nc(NC(=O)C4CC4)cc3c2)c(OC[C@@]2(C#N)CCN(C)C2)cn1 (single isomer, unassigned)
# input Rank entries according to their IC50, from the largest number down. Thanks in advance for listing the labels in the requested order.
# output c, a, b

P: Cc1cc(Nc2cc3cc(-c4cc(C)ncc4OCC(C)(C)O)ccn3n2)nc(C(=O)N(C)C)c1
Q: Cc1cc(-c2ccn3nc(Nc4cc(C)nc(C)n4)cc3c2)c(OC[C@H]2CC3(CCC3)CO2)cn1 (single isomer, unassigned)
# input Please indicate which has the smaller reported IC50: P , or Q . Field: selected label. Fill in the label of the entry you choose.
# output P
(P: 0.0218 µM, Q: 0.1 µM)

a: CC(C)(C#N)COc1cnc(OC(F)F)cc1-c1ccn2nc(Nc3ccnc(N)n3)cc2c1
b: Cc1cc(Nc2cc3cc(-c4cc(OCC(F)F)ncc4OCC(C)(C)C#N)ccn3n2)nn(C2CC2)c1=O [Example 737]
# input Sort a and b by IC50 descending and give the first. Field: selected label. Fill in the label of the entry you choose.
# output a

a: Cc1cc(-c2ccn3nc(Nc4cccnn4)cc3c2)c(OC[C@@H]2CN[C@H](C)CO2)cn1
b: Cc1cc(-c2ccn3nc(Nc4cc(C)nc(C)n4)cc3c2)c(OC[C@@H]2COC[C@H](O)C2)cn1 (single isomer, unassigned)
c: Cc1cc(-c2ccn3nc(Nc4cc(C(=O)N(C)C)cc(C)n4)cc3c2)c(OCC(C)(C)O)cn1
d: Cc1cc(-c2ccn3nc(Nc4cc(C)nc(C)n4)cc3c2)c(O[C@H]2COC(C)(C)C2)cn1 (single isomer, unassigned)
e: Cc1cc(Nc2cc3cc(-c4cc(OCC(F)F)ncc4OCC(C)(C)C#N)ccn3n2)nc(C)n1
# input Rank entries according to their IC50, from the largest number down. Thanks in advance for listing the labels in the requested order.
# output e, c, d, a, b

P: Cc1cc(-c2ccn3nc(Nc4cc(C)nc(C)n4)cc3c2)c(OC[C@@H](O)C2CC2)cn1
Q: Cc1cc(-c2ccn3nc(Nc4cc(C)nc(C)n4)cc3c2)c(OC[C@H]2OCC[C@@H]2O)cn1
R: Cc1cc(-c2ccn3nc(Nc4cc(C)nc(C)n4)cc3c2)c(OCC(C)(C)N)cn1
S: Cc1cc(-c2ccn3nc(NC(=O)C4CC4)cc3c2)c(O[C@H]2CNC2(C)C)cn1
T: Cc1cc(-c2ccn3nc(Nc4ccc5nccn5n4)cc3c2)c(OCC(C)(C)C#N)cn1
# input Rank entries according to their IC50, from the largest number down. Thanks in advance for listing the labels in the requested order.
# output S, R, P, Q, T

A: Cc1cc(-c2ccn3nc(Nc4cc(C)nc(C)n4)cc3c2)c(OC[C@@H]2CCO[C@@H]2C)cn1 (single isomer, unassigned)
B: Cc1cc(-c2ccn3nc(NC(=O)C4CC4)cc3c2)c(OC[C@@H](N)c2ccccc2)cn1 (single isomer, unassigned)
# input Please indicate which has the smaller reported IC50: A , or B . Field: selected label. Fill in the label of the entry you choose.
# output A
